All figures here come from patent US7772177B2.

# pIC50 annotations
Target: GST-HIAP2 (cIAP-1) BIR 3 (Homo sapiens)
Sequence (Q13490 251-363): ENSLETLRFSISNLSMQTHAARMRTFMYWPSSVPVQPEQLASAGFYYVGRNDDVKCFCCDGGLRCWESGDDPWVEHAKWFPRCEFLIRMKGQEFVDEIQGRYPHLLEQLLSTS
Test: Fluorescence polarization-based competition assay, cIAP-1 Bir3
pIC50: −log10 of the molar value.

C[C@H](N)C(=O)N[C@H](C(=O)N1CCC[C@H]1COCc1ccccc1)C(C)(C)C [Compound 64]    > 5.00
CC(C)[C@H](NC(=O)[C@H](C)N)C(=O)N1CCC[C@H]1CN(CCc1ccccc1)C(=O)CCc1ccccc1 [Compound 21]    > 6.00
CN[C@@H](C)C(=O)N[C@H](C(=O)N1CCC[C@H]1CN(CCc1ccccc1)C(=O)[C@H](N)Cc1ccc(F)cc1)C(C)(C)C [Compound 53]    > 6.00
CC[C@H](N)C(=O)N[C@H](C(=O)N1CCC[C@H]1CNC(=O)Cc1ccccc1)C(C)C [Compound 14]    < 5.00
CC(C)[C@H](NC(=O)[C@H](C)N)C(=O)N1CCC[C@H]1CN(CCc1ccccc1)C(=O)CN [Compound 30]    > 6.00

Find the recorded pIC50 belonging to CN[C@@H](C)C(=O)N[C@H](C(=O)N1CCC[C@H]1CN(CCc1ccccc1)C(=O)[C@H](C)N)C(C)(C)C [Compound 37] and report it. > 6.00

Find the recorded pIC50 belonging to CC(C)[C@H](NC(=O)[C@H](C)N)C(=O)N1CCC[C@H]1COCc1ccccc1 [Compound 63] and report it. > 5.00
